- target.or.test.system: Recombinant human Gal3 (rhGal3) (TrueBinding, #QC200361) (human, UniProt P17931 2-250); further: test concentration or dose not given here
- experiment.description: cell-based or functional assay
test.readout: % inhibition of CD62L shedding (%)

{"columns": ["binder", "units.of.measure", "number"],
 "data": [
  ["F846C.2H3 (antibody, human IgG4 S228P, kappa, V domains shown) VH: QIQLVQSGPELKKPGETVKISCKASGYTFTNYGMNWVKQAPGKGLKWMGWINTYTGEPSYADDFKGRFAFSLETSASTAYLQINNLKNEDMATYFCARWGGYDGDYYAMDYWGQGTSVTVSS VL: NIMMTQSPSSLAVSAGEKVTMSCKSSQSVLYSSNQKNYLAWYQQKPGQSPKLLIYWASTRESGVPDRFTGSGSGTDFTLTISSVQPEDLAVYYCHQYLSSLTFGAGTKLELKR", "%", 93.6],
  ["23H9.2E4 (antibody, mouse IgG2a, V domains shown) VH: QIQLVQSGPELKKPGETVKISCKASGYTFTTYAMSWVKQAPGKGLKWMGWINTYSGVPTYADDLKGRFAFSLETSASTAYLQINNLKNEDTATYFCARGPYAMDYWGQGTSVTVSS VL: DIQMTQTTSSLSASLGDRVTISCSASQGINNYLNWYQQKPDGTVKLLIYYASSLHSGVPSRFSGSGSGTDYSLTISNLEPEDIATYYCQQYSQVPYTFGSGTKLEIKR", "%", 91.9],
  ["F846C.1H12 (antibody, human IgG4 S228P, kappa, V domains shown) VH: QIQLVQSGPELKKPGETVKISCKASGYTFTNFGMNWVKQAPGKGLKWMGWINTYTGEPSYADDFKGRFAFSLETSASTAYLQINNLKNEDIATYFCARWGGYAGDYYAMDYWGQGTSVTVSS VL: NIMMTQSPSSLAVSAGQKVTMSCKSSQSVLYSSSQKNYLAWYQQKPGQSPKLLIYWASTRESGVPDRFSGSGSGTDFTLTISSVQPEDLAVYYCHQYLSSLTFGAGTKLELKR", "%", 100]
]}
